Test system: L-amino acid oxidase
Experiment: Substrate specificity of L-amino acid oxidase (enzyme activity measurement, H2O2 colorimetry)
Assay type: biochemical, Colletotrichum sp. M5073
Conditions: 5 m mole of the substrate, 0.007 U of the enzyme; 37° C., 10 minutes; L-Leucine = 100
Measurement kind: Relative activity (%) on substrate

> print(dat)
                                  molecule                    measurement.kind  experimental.result
1                         C[C@@H](N)C(=O)O  Relative activity (%) on substrate                  0.0
2                  N[C@H](Cc1ccccc1)C(=O)O  Relative activity (%) on substrate                  0.0
3  CC[C@H](C)[C@H](N)C(=O)O [L-Isoleucine]  Relative activity (%) on substrate                 29.1
4                          C[C@H](N)C(=O)O  Relative activity (%) on substrate                 12.3
5                 N[C@@H](Cc1ccccc1)C(=O)O  Relative activity (%) on substrate                 70.0

Reference for the values: patent US4357425A
